Parameter Ataxia Threshold: see the listing below.
# ASSAY: Ataxia threshold
# Format: in vivo, male mice (NMRI)
# MEASUREMENT PARAMETERS: oral; ">": no effect up to this highest examined dosage

Worked set:
Q: # query: Ataxia Threshold of entry Cc1nc2n(n1)-c1ccc(Cl)cc1S(=O)(c1ccccc1)=N2 (racemic) [Example 1a]
Result: > 100 mg/kg

Q: Same read-out for O=S1(c2ccccc2)=Nc2ncnn2-c2cc(Cl)c(Br)cc21 (racemic) [Example 4b] ?
Result: > 400 mg/kg

Further cases:
Q: Report Ataxia Threshold for O=S1(c2ccccc2)=Nc2ncnn2-c2ccc(Cl)cc21 (racemic) [Example 4a] please.
Result: > 100 mg/kg

Q: Item: CN1C(=O)CN=C(c2ccccc2)c2cc(Cl)ccc21 [Diazepam, reference compound]
Result: 5 mg/kg

Q: And what about the compound Cc1nc2n(n1)-c1ccc(Cl)cc1S(=O)(c1ccccc1Cl)=N2 (racemic) [Example 2c] ?
Result: > 100 mg/kg

Q: Proceed to Cc1nc2n(n1)-c1ccc(Cl)cc1S(=O)(c1cccc(Cl)c1)=N2 (racemic) [Example 1c]
Result: > 100 mg/kg
